These entries and their values trace back to PubChem BioAssay AID1996.

PROTOCOL CONDITIONS: buffer; pH 7.4; 200.0 µM
As shown below, each of these compounds has a reported solubility kinetic value.

Sample Cc1cc(C)c(OCCN(C)C)c(Cl)c1.O=C(O)C(=O)O ; solubility kinetic observed: > 47.7 µg/mL

The compound listed as Cl.O=C(NCCCn1ccnc1)c1cc(Cl)cc(Cl)c1 has a reported solubility kinetic of > 50.2 µg/mL

// field: solubility kinetic; key: Cn1cc(CC(=O)NCc2ccc(F)cc2)c2ccccc21 ; value = > 44.5 µg/mL

Reported solubility kinetic of Nc1nc(NC(=O)c2ccccc2Cl)nn1-c1ccccc1 : > 47.1 µg/mL

solubility kinetic in this record for Cn1cccc1-c1nc2ccccc2n1C : > 31.7 µg/mL

Reported solubility kinetic ( COc1ccc(OC)c(NC(=O)CC2(CC(=O)O)CCCC2)c1 ) = > 48.2 µg/mL

Entry Cc1nc2ccccc2c2c1C(=O)NC2=O , solubility kinetic reported as > 31.8 µg/mL

Lab note: N#Cc1c(-c2cccnc2)c2c([nH]c1=O)-c1ccccc1OC2 gave solubility kinetic of > 45.2 µg/mL

// recorded solubility kinetic for Cl.O=C(CCN1CCOCC1)NNC(=O)c1ccc(Cl)c([N+](=O)[O-])c1 : > 59 µg/mL

// field: solubility kinetic; key: O=C(NC1CCC(O)CC1)c1cccc2cccnc12 (stereo not given) ; value = > 40.5 µg/mL

###

PROTOCOL CONDITIONS: buffer; pH 7.4; 200.0 µM
Some compounds, each annotated with its measured solubility kinetic.

O=C(Cn1ccc([N+](=O)[O-])n1)Nc1nc2ccccc2s1 yielded solubility kinetic of > 45.5 µg/mL

Reported solubility kinetic for O=C(Cc1cccc2ccccc12)Nc1ccccc1Br was < 0.7 µg/mL

The reported solubility kinetic of the compound COc1ccccc1/C=C/C(=O)NCC(=O)N/N=C/c1ccc(C)o1 was > 51.2 µg/mL

###

PROTOCOL CONDITIONS: buffer; pH 7.4; 200.0 µM
# key: entry, value: solubility kinetic
Reply with just the number (in µg/mL).

solubility kinetic reported for this compound O=C(Nc1cc(Cl)ncn1)c1ccccc1 : 34.2

For record Cc1ccc(NC(=O)CCN2C(=O)c3ccccc3C2=O)cc1 the listed solubility kinetic is 8.9

// CCc1ccccc1NC(=O)COc1ccc2c(c1)OCO2 : solubility kinetic value = 41.4

The recorded solubility kinetic for Cc1cc(C)nc(/N=C(\NC(=O)C(C)(C)C)Nc2ccc(F)cc2)n1 is 0.5

###

PROTOCOL CONDITIONS: buffer; pH 7.4; 200.0 µM
Measured solubility kinetic, listed per entry.

O=C(CCCO)NNc1c2ccccc2nc2ccccc12 yielded solubility kinetic of > 44.3 µg/mL

The recorded solubility kinetic for entry CCc1nnc(NC(=O)C2(C)COC(c3ccccc3)OC2)s1 (centres undefined) equals > 50 µg/mL

Reported solubility kinetic for Cc1csc(NC(=O)C2CSC3(C)CCC(=O)N23)n1 (centres undefined) was > 44.6 µg/mL

In plain terms, On1c(-c2ccccc2)nc2ccccc21 has a documented solubility kinetic of > 31.5 µg/mL

// solubility kinetic value for CNC(=O)c1ccc(CNC(=O)OCc2ccccc2)cc1 : > 44.8 µg/mL

###

Property: solubility kinetic; scope: individual molecules
PROTOCOL CONDITIONS: buffer; pH 7.4; 200.0 µM

Illustrative cases are given below, each with its answer.
{"COMPOUND STRUCTURE": "COCc1nc2ccccc2n1Cc1c(F)cccc1Cl", "solubility kinetic": "> 45.7 µg/mL"}
{"COMPOUND STRUCTURE": "COc1ccc(C(C)=O)cc1COC(=O)CNC(=O)C1CCCCC1", "solubility kinetic": "> 52.1 µg/mL"}

# ---- query molecule ----
solubility kinetic reading for Cc1ccc(S(=O)(=O)Nc2ccccc2C(=O)N2CCCCC2)cc1 : > 53.8 µg/mL
